assay: cell viability in Huh7 cells, primary screen, cytotoxicity control for HCV replication inhibitor project, CellTiter-Glo luminescence, basal, 48 h (AID 1143); conditions: Huh7 HCV replicon, higher = more signal, called active from +8 up or from −8 down;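 note: Huh7 hepatoma cells carrying a hepatitis C replication reporter with no stimulus; test concentration not given here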
z-score for assorted compounds
Keep it simple and answer with nothing but the number.

As a guide, the following entries are already answered.
compound: COc1ccc([Si](C)(C)[C@H]2[C@H](CC(=O)N3CCC[C@H]3CO)O[C@@]3(C(=O)N(C)c4ccccc43)[C@@H]2C)cc1
z-score: 0.191
//
compound: Cc1ccc(S[C@]2(C(=O)NCC(C)C)CC(=O)N(C(C)C)[C@@H]2c2ccc(CO)cc2I)cc1
z-score: -1.44
//
compound: C=CCNC(=O)[C@H]1[C@@H]2C(=O)O[C@@H](c3ccccc3)[C@@H](c3ccccc3)N2[C@@H](c2ccc(OCCO)cc2)[C@]12C(=O)N(C(=O)OCCOC)c1ccc(C#CCC(C(=O)OC)C(=O)OC)cc12
z-score: -1.17
//
compound: C[C@]12C(=O)N(CCO)[C@@H]3C(=O)N(c4ccc(Cl)cc4)CC=CC31O[C@@H]1/C=C\CCCOC(=O)C12 (stereo partly drawn)
z-score: 0.0051
//
compound: C=C(COC)/C(=C/C[C@@H](OC(C)=O)c1cccc(OCCO)c1)c1cnc2ccccc2c1
z-score: -2.14
//
compound: C=C[C@H](OC)[C@@H](O)c1ccc(OC)c(O)c1
z-score: 0.97

Look up z-score: `O=C1O[C@H](c2ccccc2)[C@H](c2ccccc2)N2[C@H]1[C@@H](C(=O)N1CCCCCCC1)[C@]1(C(=O)Nc3ccc(C#CCCO)cc31)[C@H]2c1ccc(O)cc1` -1.76

// returns reported z-score for input `CCOC(=O)C[C@H]1[C@H](OC(=O)c2ccccc2-c2ccccc2)[C@@H](NC(=O)CC(C)C)c2cc(OCCCO)ccc2N1C(=O)c1ccccc1` -0.715

Tell me the measured z-score of `O=C(c1ccccc1)N1Cc2ccccc2C[C@@]2(N=C(c3ccc(OCCCO)cc3)O[C@H]2c2ccccc2)C1=O` , please. -4.73

# lookup: z-score of `C=CC[C@@]1(C(=O)NCCCOC)N=C(c2ccc(OCCCO)cc2)O[C@@H]1c1ccccc1CN=[N+]=[N-]` -3.72

What does the data say about its z-score? Entry: `COCCOC(=O)N1C(=O)[C@@]2(c3ccccc31)[C@H](C(=O)Nc1nc3ccccc3s1)[C@H]1C(=O)O[C@H](c3ccccc3)[C@H](c3ccccc3)N1[C@@H]2c1ccccc1OCCO` -3.65

All values here come from PubChem BioAssay.
